assayed.system: ZFP SBS#685 (synthetic)
Sequence (chain, as listed by the source): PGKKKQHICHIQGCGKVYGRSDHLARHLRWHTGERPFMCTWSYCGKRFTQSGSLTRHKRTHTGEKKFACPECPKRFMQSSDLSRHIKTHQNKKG
procedure.text: EMSA
applied.conditions: tags: MBP fusion
quantity.name: pKd
pKd is a log-scale quantity: -log10 of the concentration expressed in molar.

Query: Give me measured pKd, please, for this binder: GCTGCAGGAG (dsDNA) DNA 1: GCTGCAGGAG DNA 2: CTCCTGCAGC
Reply: 6.82
